Kindly supply the reported TOP MFI values for the records listed here.
# measured target: T1, human SIRPα v2 on CHOK1 cells (human, UniProt P78324 31-504)
# T1 construct: whole, on cells; also called CHOK1-hSIRPα v2; cell surface human SIRPα v2
# T1 sequence (P78324 other isoform, or with tags, fused parts or gaps limits assumed): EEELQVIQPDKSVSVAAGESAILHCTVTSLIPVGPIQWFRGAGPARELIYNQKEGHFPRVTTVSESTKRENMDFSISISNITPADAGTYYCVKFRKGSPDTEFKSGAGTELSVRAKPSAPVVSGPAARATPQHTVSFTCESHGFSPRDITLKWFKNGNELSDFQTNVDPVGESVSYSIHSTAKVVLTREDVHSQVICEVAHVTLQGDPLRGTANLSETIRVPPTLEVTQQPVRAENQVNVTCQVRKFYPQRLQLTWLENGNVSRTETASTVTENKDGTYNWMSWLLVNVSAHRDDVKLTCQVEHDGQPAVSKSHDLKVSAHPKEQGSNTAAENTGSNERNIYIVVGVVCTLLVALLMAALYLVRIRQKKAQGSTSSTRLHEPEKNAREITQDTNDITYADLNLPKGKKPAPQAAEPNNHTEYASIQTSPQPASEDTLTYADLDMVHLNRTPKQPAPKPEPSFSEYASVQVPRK
# test details: FACS, CHOK1 cells stably expressing human SIRPα v2
Answers are plain numbers, in MFI.

[[record]]
binder = "Humanized anti-SIRPα antibody hu025.023 (antibody, V domains shown, Humanized from C25) VH: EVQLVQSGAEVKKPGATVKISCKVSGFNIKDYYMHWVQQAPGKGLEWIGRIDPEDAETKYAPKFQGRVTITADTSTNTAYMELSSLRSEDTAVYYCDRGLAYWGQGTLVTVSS VL: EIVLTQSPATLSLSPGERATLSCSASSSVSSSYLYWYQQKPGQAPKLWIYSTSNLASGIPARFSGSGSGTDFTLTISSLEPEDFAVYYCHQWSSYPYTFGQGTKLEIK"
quantity = "TOP MFI"
unit_string = "MFI"
value_reported = 45800

[[record]]
binder = "Humanized anti-SIRPα antibody hu025.060 (antibody, V domains shown, Humanized from C25) VH: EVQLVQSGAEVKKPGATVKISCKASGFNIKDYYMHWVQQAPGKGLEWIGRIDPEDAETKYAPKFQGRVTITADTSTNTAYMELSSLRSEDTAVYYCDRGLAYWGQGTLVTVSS VL: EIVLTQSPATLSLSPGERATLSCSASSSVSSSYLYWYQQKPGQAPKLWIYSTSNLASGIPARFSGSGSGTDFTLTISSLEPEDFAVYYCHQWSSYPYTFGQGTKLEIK"
quantity = "TOP MFI"
unit_string = "MFI"
value_reported = 48800


Data request: Bench note: what TOP MFI did Humanized anti-SIRPα antibody hu025.033 (antibody, V domains shown, Humanized from C25) VH: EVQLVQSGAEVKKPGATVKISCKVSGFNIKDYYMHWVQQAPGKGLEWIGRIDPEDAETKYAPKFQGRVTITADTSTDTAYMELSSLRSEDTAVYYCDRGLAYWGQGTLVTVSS VL: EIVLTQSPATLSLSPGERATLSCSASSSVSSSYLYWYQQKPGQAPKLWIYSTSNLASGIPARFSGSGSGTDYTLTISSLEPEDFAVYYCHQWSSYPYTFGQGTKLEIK show?
Data returned: 39800
